test: soluble fraction after stress (log2 fold change); higher = more stays soluble; pooled small domains, quantitative proteomics; conditions: stress: 50 degC
Lab note: compare soluble fraction (log2) against -0.03. Equal or greater, write t. Smaller, write f.

input_sequence=HMPTQGELAILRVLWEQGPSTVRAVWEKLNSQSGTGYTTALKLMQIMAQKGLVSRDESQKTHVYRA answer_label=f
input_sequence=HMDERLLRLYERELQFLREGADEFAQAYPKVAGHLGLNSQSMGDPFIERLLEGLGFLTARIQLQLESEF answer_label=t
input_sequence=HMQTTQQLIRNLRLKQAATLLADKRHSITEVATLTGFTHPTYFATAFREMFGVSPSEYMEQHI answer_label=f
input_sequence=HMRIPANIAEDIKKLQKKEHHLHHHLGRDPFDDELAKELEWDTEQVSEIRQMIKNPELLEELLEAEREEE answer_label=t
input_sequence=HMQGQADFTQGIANFTQYPVGSRITVFTLEGRRVAVVEIGKDGTAQLDMRNKPAGVYIVNTGKQSFKWLK answer_label=f
input_sequence=HMQALDNNDALEEIIKKVITENPSQVTEFRNGKDSLMNFLVGKVMAASGGKANPKTLPETIEKIIK answer_label=t
